protocol.details: clinical;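 note: Open-label dose-escalation clinical trial, plasma drug levels measured by validated LC-MS, sampling during the first 4-week treatment cycle only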
test.settings: human, in vivo, iv, 225 mg/m2
measured.parameter: AUC (ng·h/mL)

molecule="C=CCNC1=C2C[C@@H](C)C[C@H](OC)[C@H](O)[C@@H](C)/C=C(\\C)[C@H](OC(N)=O)[C@@H](OC)/C=C\\C=C(/C)C(=O)NC(=CC1=O)C2=O [17-AAG, 17-allylamino-17-demethoxygeldanamycin]" value_reported=588

Data origin: patent US20090197852A9
